Each recorded value in this set is attributed to PubChem BioAssay AID2314.

- assay notes: Cycloheximide Counterscreen for Small Molecule Inhibitors of Shiga Toxin; further: read at 38.3 µM for the half of the compounds with a filed dose; 0% is about no effect
- conditions used: cell reporter, cycloheximide protein synthesis inhibition counterscreen; hits give high values
About 37,000 (12%) of roughly 300,000 compounds were called active. Shown is part of a subset that was picked to be rich in actives.
assay readout: max response (%)

- compound: "Cc1c(NC(=O)c2coc(=O)c(Br)c2)c(=O)n(-c2ccccc2)n1C"
  assay readout: "max response"
  readout number: 10.1
- compound: "CCCCC(CC)CNCc1cccn1CCN1CCOCC1 (stereo unspecified)"
  assay readout: "max response"
  readout number: -0.53
- compound: "Cc1ccccc1NCC(=O)N/N=C\\c1ccc([N+](=O)[O-])s1"
  assay readout: "max response"
  readout number: 25.2
- compound: "N=c1c2c3c(sc2nc2n1CCCCC2)CCCC3"
  assay readout: "max response"
  readout number: 15
- compound: "COc1ccc(C(CNC(=O)COc2ccccc2OC)N2CCCCC2)cc1 (stereo unspecified)"
  assay readout: "max response"
  readout number: -6.3
- compound: "COc1ccccc1C(=O)NC(=S)Nc1ccccc1N1CCCCC1"
  assay readout: "max response"
  readout number: 18.9
- compound: "C/C(=N\\c1nc2ccccc2n1C)c1cc(Cl)ccc1O"
  assay readout: "max response"
  readout number: -3.14
- compound: "NC(=O)c1cc(-c2cccnc2)nc2ccc(Br)cc12"
  assay readout: "max response"
  readout number: 0.502
- compound: "COc1ccc(-c2ccc(C3C4C=CCCC4(C)C(=O)N3Cc3ccccc3)c(F)c2)cc1OC (stereo unspecified)"
  assay readout: "max response"
  readout number: 12.4
- compound: "NC(=O)CCC(NS(=O)(=O)c1ccc(Cl)cc1)C(=O)NCc1ccccc1Cl (stereo unspecified)"
  assay readout: "max response"
  readout number: -1.61
- compound: "O=C(NC(=O)c1ccccc1)Nc1ccccc1O"
  assay readout: "max response"
  readout number: 38.7
- compound: "CCCCN(CC)C(=O)C1CCCN(S(=O)(=O)c2cccc3nsnc23)C1 (stereo unspecified)"
  assay readout: "max response"
  readout number: -3.7
- compound: "COc1ccccc1CC(=O)Nc1ccc(F)cc1F"
  assay readout: "max response"
  readout number: -2.45
- compound: "N#Cc1ccc(CSc2nnc3ccccn23)cc1"
  assay readout: "max response"
  readout number: 5.39
- compound: "CCOc1ccc(/C=N/NC(=O)C(C)Sc2ccccn2)cc1OCC (stereo unspecified)"
  assay readout: "max response"
  readout number: -2.71
- compound: "CC(=O)NC(Cc1c[nH]c2ccccc12)C(=O)NCCc1ccccc1 (stereo unspecified)"
  assay readout: "max response"
  readout number: -4.02
- compound: "COc1ccccc1CNC(=O)C1CCN(C(=O)[C@@H]2Cc3ccccc3CN2)CC1"
  assay readout: "max response"
  readout number: 2.06
- compound: "O=C(NC(=O)c1ccccc1)NC(=O)c1ccccc1"
  assay readout: "max response"
  readout number: 8.89
- compound: "O=C(NC1CCCC1)C(=O)c1c[nH]c2ccccc12"
  assay readout: "max response"
  readout number: 49.1
- compound: "O=C(Nc1ccc(C(=O)O)c(O)c1)c1ccccc1"
  assay readout: "max response"
  readout number: -3.21
- compound: "Nc1ccc(-c2sc(N)nc2-c2ccccc2)cc1"
  assay readout: "max response"
  readout number: 1.13
- compound: "O=C(O)CCC(=O)Nc1ccc(OCC2CCCO2)cc1 (stereo unspecified)"
  assay readout: "max response"
  readout number: -3.29
- compound: "CC(C)NC(=O)c1ccc(Cl)cc1Cl"
  assay readout: "max response"
  readout number: 8.78
- compound: "CCOc1cc(CN2CCCC(CO)(Cc3ccc(F)cc3F)C2)ccc1OC (stereo unspecified)"
  assay readout: "max response"
  readout number: -0.883
- compound: "O=C(C(=O)N1CCc2ccccc2C1)c1c[nH]c2ccccc12"
  assay readout: "max response"
  readout number: 10.7
- compound: "Cn1c(CC(=O)Nc2ccccc2)nnc1SCC(=O)c1ccccc1"
  assay readout: "max response"
  readout number: 3.65
- compound: "CC(C)OCCCNC(=S)N1CCC(C(=O)c2ccc3c(c2)OCCO3)CC1"
  assay readout: "max response"
  readout number: -2.67
- compound: "Cc1cc[n+](-c2[nH]c(=O)sc2/C=N/NC(=O)c2ccccc2[O-])cc1C"
  assay readout: "max response"
  readout number: 1.3
- compound: "COc1ccccc1CNC(=O)C1CCN(S(C)(=O)=O)CC1"
  assay readout: "max response"
  readout number: -1.24
- compound: "Cc1ccc(-n2c(C)cc(C(=O)CSc3nnc4ccccn34)c2C)cc1"
  assay readout: "max response"
  readout number: 39.3
- compound: "Cc1ccc(N2C(=O)C3C4C=CC(CC4)C3C2=O)cc1Br (stereo unspecified)"
  assay readout: "max response"
  readout number: 0.748
- compound: "COc1cc(/C=C2/C(=O)ON=C2C)ccc1OCc1cccc(F)c1"
  assay readout: "max response"
  readout number: 27.9
- compound: "COc1cc(C(=O)N2CCN(C)CC2)cc(OC)c1OC"
  assay readout: "max response"
  readout number: -1.54
- compound: "O=C(NCC1COc2ccccc2O1)C1(c2ccccc2)CCCC1 (stereo unspecified)"
  assay readout: "max response"
  readout number: -2.77
- compound: "Cc1nc2ccc(C(=O)N(C)CC3CCCN(CCc4ccc(Cl)cc4)C3)cc2[nH]1 (stereo unspecified)"
  assay readout: "max response"
  readout number: -2.66
- compound: "COC(=O)c1ccccc1NC(=O)Cc1ccccc1OC"
  assay readout: "max response"
  readout number: -2.67

====

- assay notes: Cycloheximide Counterscreen for Small Molecule Inhibitors of Shiga Toxin; further: read at 38.3 µM for the half of the compounds with a filed dose; 0% is about no effect
- conditions used: cell reporter, cycloheximide protein synthesis inhibition counterscreen; hits give high values
Out of some 300,000 compounds screened, about 37,000 (12%) were called active. This is one part of a sample in which actives are shown more often than they occur.
Listed next: entries and their corresponding max response.
assay readout: max response (%)

- compound: "CN1CCN(NC(=O)Nc2ccc(Br)cc2)CC1"
  assay readout: "max response"
  readout number: 24.2
- compound: "O=C(OCCN=C1NS(=O)(=O)c2ccccc21)c1cccc([N+](=O)[O-])c1"
  assay readout: "max response"
  readout number: 0.837
- compound: "O=C(NC(=O)c1ccccc1N1CCCCC1)Nc1ccc(Br)cc1"
  assay readout: "max response"
  readout number: -3.48
- compound: "COc1cc(/C=C2\\SC(=O)NC2=O)ccc1OCc1ccc(Cl)nc1"
  assay readout: "max response"
  readout number: -3.18
- compound: "O=C(Nc1nnc(C2COc3ccccc3O2)o1)c1ccc(F)cc1 (stereo not drawn)"
  assay readout: "max response"
  readout number: 1.61
- compound: "COc1ccc(CCNC2=CC(=O)CC(C)(C)C2)cc1"
  assay readout: "max response"
  readout number: 17
- compound: "Cc1cc(C)c2c(=O)[nH]c(SCC(=O)Nc3ccc(Br)cc3)nc2n1"
  assay readout: "max response"
  readout number: -1.25
- compound: "N#C/C(=C/c1ccc(N2CCCCC2)o1)C(=O)NCCc1c[nH]c2ccccc12"
  assay readout: "max response"
  readout number: -3.38

====

- assay notes: Cycloheximide Counterscreen for Small Molecule Inhibitors of Shiga Toxin; further: read at 38.3 µM for the half of the compounds with a filed dose; 0% is about no effect
- conditions used: cell reporter, cycloheximide protein synthesis inhibition counterscreen; hits give high values
Out of some 300,000 compounds screened, about 37,000 (12%) were called active. Many of the other results were omitted from the sample, so actives are more common in it than they were.
Listed next: entries and their corresponding max response.

- compound: "CCOCCCNC(=O)C1(O)c2cc(Br)ccc2NC(=O)N1c1ccc(C)c(C)c1 (stereo not drawn)"
  max response: "-2.74% (inactive)"
- compound: "COc1ccc(-c2c(NC(=O)c3ccco3)oc3ccc(Cl)cc3c2=O)cc1"
  max response: "1.49% (inactive)"
- compound: "Cc1cc(C(=O)COc2ccccc2[N+](=O)[O-])c(C)n1-c1cccc(S(=O)(=O)N2CCOCC2)c1"
  max response: "0.979% (inactive)"
- compound: "O=C(CCC1CCCC1)N=C1SC2CS(=O)(=O)CC2N1Cc1ccccc1 (stereo not drawn)"
  max response: "0.661% (inactive)"
- compound: "Cc1ccc2nc(C)c3c(c2c1)N(c1ccccc1)CC3"
  max response: "-1.78% (inactive)"
- compound: "CC1(C)C(C=C(Cl)Cl)C1C(=O)N(Cc1ccc(Cl)cc1)C1CCS(=O)(=O)C1 (stereo not drawn)"
  max response: "3.61% (inactive)"
- compound: "CCC(=O)N(Cc1cc2cc(OC)ccc2[nH]c1=O)c1ccccc1C"
  max response: "-0.76% (inactive)"
- compound: "Cc1cc(=O)oc2c(C)c(OCC(=O)NCCN3CCOCC3)ccc12"
  max response: "7.13% (inactive)"
- compound: "Cc1cc(OCCN2CCCC2)cc(C(C)C)c1"
  max response: "-2.45% (inactive)"
- compound: "COc1ccc(N(Cc2cc3cc(OC)ccc3[nH]c2=O)S(C)(=O)=O)cc1"
  max response: "-1.64% (inactive)"
- compound: "COc1cc(C(=O)N2CCN(C/C=C/c3ccccc3)CC2)cc(OC)c1C"
  max response: "-2.42% (inactive)"
- compound: "Cc1ccccc1Nc1nc(-c2cccnc2)cs1"
  max response: "40.6% (active)"
- compound: "O=C(CN1C(=O)CC(c2ccccc2)=Nc2ccccc21)NC1CCCCC1"
  max response: "-1.57% (inactive)"
